Tested on: human lung cancer cells (A-549)
Assay: MTT tumor cell proliferation inhibition test, A-549
Format: cell-based
Details: A549 cells, MTT, 48 hours treatment, read-out: Half Inhibitory Concentration IC50, A549
experimental-endpoint: IC50 (µM)
Answers are plain numbers, in µM.

Query block: Recall the recorded IC50 for Cc1cc2c(C(C)C)c(O)c(O)c(/C=N\CCCC(N)(C(=O)O)C(F)F)c2c(O)c1-c1c(C)cc2c(C(C)C)c(O)c(O)c(/C=N\CCCC(N)(C(=O)O)C(F)F)c2c1O (centres unmarked) with human lung cancer cells (A-549) and state it.
Result block: 11.6
